Cited source: patent US20230233541A1

Target: human TREX2 (residues M44-A279) (Homo sapiens)
Construct: human TREX2 (residues M44-A279, expressed in E. coli); His-Tev (His tag with TEV protease site) (N)
Sequence (Q9BQ50 44-279 isoform Q9BQ50-1): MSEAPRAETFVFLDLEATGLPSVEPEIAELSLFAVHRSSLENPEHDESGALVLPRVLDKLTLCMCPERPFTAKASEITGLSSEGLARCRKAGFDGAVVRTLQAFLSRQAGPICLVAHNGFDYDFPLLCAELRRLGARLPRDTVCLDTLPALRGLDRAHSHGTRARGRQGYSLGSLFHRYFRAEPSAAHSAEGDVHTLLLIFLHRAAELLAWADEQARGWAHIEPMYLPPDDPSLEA
Test: TREX2 Biochemical Assay (fluorescence assay, degradation of dsDNA substrate)
Conditions: 2.5 nM TREX2, 60 nM dsDNA substrate, 25 minutes at room temperature; read-out: hTREX2 EC50
pEC50: −log10 of the molar value.
Measurement Name: pEC50

Recorded pEC50 (molecule O=C(c1cc(F)cc(F)c1)N(Cc1cnc2c(=O)[nH]c(=O)[nH]c2c1)Cc1cccc(Cl)c1Cl ): 5.00 to 6.00

Field pEC50 (entry O=C(c1ccc(CO)cc1F)N(Cc1cccnc1)Cc1cc(Cl)cc(Cl)c1 ) reads < 4.00

Entry O=C(c1cc(Cl)c(O)c(Cl)c1)N(Cc1cccnc1)Cc1ccc(Cl)cc1Cl , pEC50 reported as < 4.00

# molecule NCCC[C@H](c1cccc(Cl)c1Cl)N(Cc1cccnc1)C(=O)c1cc(F)cc(F)c1 ; its pEC50 = 4.00 to 5.00

# pEC50 (molecule: O=C(c1cccc(F)c1F)N(Cc1cccnc1)Cc1ccc(Cl)cc1Cl ) is < 4.00

Lab note: measured pEC50 of O=C(c1ccc(F)cc1)N(Cc1cccnc1)Cc1ccc(Cl)cc1Cl was < 4.00

Reported pEC50 of O=C(c1cc(F)cc(F)c1)N(Cc1ccc(-n2cccn2)nc1)Cc1ccc(Cl)cc1Cl : < 4.00

Sample O=C(O)c1ncc(CN(Cc2ccccc2Cl)C(=O)c2cc(F)cc(F)c2)cn1 ; pEC50 observed: 4.00 to 5.00

Recorded pEC50 (molecule O=C(c1cc(F)cc(F)c1)N(Cc1ccc(-c2noc(=O)[nH]2)nc1)Cc1cccc(Cl)c1Cl ): 5.00 to 6.00

pEC50 for O=C(c1ccc(Cl)cc1)N(Cc1cccnc1)Cc1cc(Cl)cc(Cl)c1 is < 4.00

pEC50 reported for this molecule O=C(O)c1ncc(CN(Cc2cccc(Cl)c2Cl)C(=O)c2cc(F)cc(F)c2)cc1O : 4.00 to 5.00

// recorded pEC50 for COC(=O)c1ccc(CN(Cc2ccc(Cl)cc2Cl)C(=O)c2cccc(F)c2)cn1 : < 4.00

Record COc1cccc(CN(Cc2ccc(C(=O)O)nc2)C(=O)c2cc(F)cc(F)c2)c1C . Reported pEC50: 5.00 to 6.00

The molecule O=C(c1cccc(F)c1)N(Cc1ccncc1)Cc1ccc(Cl)cc1Cl showed pEC50 equal to < 4.00

What the record says about COc1cc(C(=O)N(Cc2cccnc2)Cc2cc(Cl)cc(Cl)c2)ccc1F : pEC50 is < 4.00

pEC50 reading for O=C(c1cnon1)N(Cc1cccnc1)Cc1ccc(Cl)cc1Cl : < 4.00

molecule CC[C@@H](c1cccc(OC)c1Cl)N(Cc1cnc(C(=O)O)c(N)c1)C(=O)c1cc(F)cc(F)c1 , pEC50 observed: 4.00 to 5.00
